System: HCT116 MTAP null cells
run_description: HCT116 MTAP null cell line proliferation (CellTiter-Glo cell viability, 6 days)
Format: cell-based
condition_description: HCT116-MTAP null, 144 h, HCT116 MTAP null cells, 6 days of treatment, CellTiter-Glo cell viability; read-out: HCT-116 MTAP null IC50
quantity: IC50 (nM)

Examples from the recorded data:
>>> df
                                   molecule  units_symbol  readout_number
0  C[C@H]1COC[C@@H](c2ccc(C(F)(F)F)cn2)N1C(=O)c1cc2c3c(c(N)nc2cc1F)COC3 (mixture of isomers)            nM             710
1  Cc1ccc([C@H]2COCCN2C(=O)c2ccc3nc(N)c4c(c3c2)COC4)cn1 (single isomer, unassigned)            nM            1030

A = CCOc1ccc(C2COCCN2C(=O)c2cc3c4c(c(N)nc3cn2)[C@@H](C)OC4)nn1 (mixture of isomers)
B = C[C@H]1COC[C@@H](c2ccc(C#N)cc2)N1C(=O)c1cc2c3c(c(N)nc2cn1)COC3 (racemic)
-- ask Field: lower recorded IC50 (choose A or B ) Give the label under which the chosen entry appears.
-- reply B

---

System: HCT116 MTAP null cells
run_description: HCT116 MTAP null cell line proliferation (CellTiter-Glo cell viability, 6 days)
Type: cell-based
condition_description: HCT116-MTAP null, 144 h, HCT116 MTAP null cells, 6 days of treatment, CellTiter-Glo cell viability; read-out: HCT-116 MTAP null IC50
pIC50: −log10 of the molar value.
quantity: pIC50

Examples from the recorded data:
>>> df
                                   compound           system_tested  readout_number
0  Nc1nc2cc(Cl)c(C(=O)N3CC[C@@](O)(c4ccc(C(F)(F)F)cc4)C3)cc2c2c1COC2 (single isomer, unassigned)  HCT116 MTAP null cells            6.26
1  Nc1nc2cnc(C(=O)N3CCOCC3c3ccc(F)c(OC(F)(F)F)c3)cc2c2c1COC2 (racemic)  HCT116 MTAP null cells            6.46
2  Nc1nc2ccc(C(=O)N3CCOCC3c3ccc(OC(F)F)cc3)cc2c2c1COC2 (racemic)  HCT116 MTAP null cells            6.31
3  C[C@H]1OCc2c1c(N)nc1ccc(C(=O)N3[C@@H](C)COC[C@H]3c3ccc(C(F)(F)F)cn3)cc21 (racemic)  HCT116 MTAP null cells            7.64
4  Cn1ncc2c3cc(C(=O)N4CCOCC4c4ccc(OC(F)(F)F)cc4)ccc3nc(N)c21 (racemic)  HCT116 MTAP null cells            6.15

a = C[C@@H]1COC[C@H](c2ccc(C(F)(F)F)nn2)N1C(=O)c1cc2c3c(c(N)nc2cn1)COC3
b = C[C@H]1OCc2c1c(N)nc1ccc(C(=O)N3CCOC[C@H]3c3ccc(F)c(C(F)(F)F)c3)cc21 (racemic)
-- ask Field: lower recorded pIC50 (choose a or b ) Give the label under which the chosen entry appears.
-- reply b

1 = Cn1ncc2c(N)nc3ccc(C(=O)N4CCOC[C@@H]4c4ccc(S(F)(F)(F)(F)F)cc4)cc3c21
2 = Nc1nc2ccc(C(=O)N3CCOC[C@H]3c3ccc(OC(F)(F)F)nc3)cc2c2c1COC2 (single isomer, unassigned)
3 = Cn1ncc2c(N)nc3cc(F)c(C(=O)N4CCOC[C@@H]4c4ccc(S(F)(F)(F)(F)F)cc4)cc3c21
-- ask Ascending by pIC50, please: list the compounds accordingly. Your reply should list the labels following the order given in the request.
-- reply 2, 1, 3

I = Cn1ncc2c(N)nc3cc(F)c(C(=O)N4CCOC[C@@H]4c4ccc(C(F)(F)F)cc4)cc3c21
II = Nc1nc2ccc(C(=O)N3CCOCC3c3ccc(Br)cc3)cc2c2c1COC2 (racemic)
III = Cn1ncc2c(N)nc3cc(F)c(C(=O)N4CC(c5ccc(C(F)(F)F)cc5)C4)cc3c21
-- ask Ascending by pIC50, please: list the compounds accordingly. Your reply should list the labels following the order given in the request.
-- reply II, III, I
(II: 6.43, III: 7.40, I: 7.92)

---

Tested on: HCT116 MTAP null cells
run_description: HCT116 MTAP null cell line proliferation (CellTiter-Glo cell viability, 6 days)
Format: cell-based
condition_description: HCT116-MTAP null, 144 h, HCT116 MTAP null cells, 6 days of treatment, CellTiter-Glo cell viability; read-out: HCT-116 MTAP null IC50
quantity: IC50 (µM)

In [3]: df
Out[3]:
                                   molecule  readout_number
0  Nc1nc2ccc(C(=O)N3CCOC[C@@H]3c3ccc(C(F)(F)F)cc3)cc2c2cncnc12           0.819

P = Cn1ncc2c(N)nc3cnc(C(=O)N4CCOC[C@@H]4c4ccc(OC(F)F)nn4)cc3c21
Q = Nc1nc2cnc(C(=O)N3CCOCC3c3ccc(C4CC4)nc3)cc2c2c1COC2 (racemic)
R = Nc1nc2cnc(C(=O)N3CCC(F)(F)C[C@@H]3c3ccc(OC(F)(F)F)cc3)cc2c2c1COC2 (single isomer, unassigned)
S = Nc1nc2ccc(C(=O)N3CCOC[C@@H]3c3ccc(C(F)(F)F)cc3)cc2c2cnccc12
-- ask Ascending by IC50, please: list the molecules accordingly. Your reply should list the labels following the order given in the request.
-- reply S, P, Q, R

---

System: HCT116 MTAP null cells
run_description: HCT116 MTAP null cell line proliferation (CellTiter-Glo cell viability, 6 days)
Type: cell-based
condition_description: HCT116-MTAP null, 144 h, HCT116 MTAP null cells, 6 days of treatment, CellTiter-Glo cell viability; read-out: HCT-116 MTAP null IC50
quantity: IC50 (nM)

Examples from the recorded data:
                                   compound  units_symbol  readout_number
0  Cn1ncc2c(N)nc3cc(Cl)c(C(=O)N4CCC(c5ccc(C(F)(F)F)cn5)C4)cc3c21 (racemic)            nM              18
1  COc1ccc([C@H]2COC[C@@H](C)N2C(=O)c2cc3c4c(c(N)nc3cn2)COC4)nn1 (relative stereo)            nM             108

1 = Nc1nc2cnc(C(=O)N3CCOC[C@@H]3c3ncc(Br)cc3F)cc2c2c1COC2 (single isomer, unassigned)
2 = C[C@@H]1COC[C@H](c2ccc(OC(F)(F)F)cc2)N1C(=O)c1ccc2nc(N)c3c(c2c1)COC3 (single isomer, unassigned)
3 = Cn1ncc2c(N)nc3cc(F)c(C(=O)N4CC[C@H](Cc5ccc(C(F)(F)F)cc5)C4)cc3c21 (single isomer, unassigned)
4 = COc1ccc([C@H]2COC[C@@H](C)N2C(=O)c2cc3c(cc2F)nc(N)c2c3cnn2C)nn1
-- ask Thanks in advance: please rank these 4 entries by IC50, highest to lowest. Your reply should list the labels following the order given in the request.
-- reply 3, 1, 4, 2
(3: 340 nM, 1: 72 nM, 4: 27 nM, 2: 14 nM)

---

Tested on: HCT116 MTAP null cells
run_description: HCT116 MTAP null cell line proliferation (CellTiter-Glo cell viability, 6 days)
Format: cell-based
condition_description: HCT116-MTAP null, 144 h, HCT116 MTAP null cells, 6 days of treatment, CellTiter-Glo cell viability; read-out: HCT-116 MTAP null IC50
quantity: IC50 (nM)

>>> df
                                   compound           system_tested  quantity  readout_number
0  Nc1nc2cnc(C(=O)N3CCOC[C@@H]3c3ccc(C(F)(F)F)nn3)cc2c2c1COC2 [Example 549]  HCT116 MTAP null cells      IC50             558

P = C[C@H]1OCc2c1c(N)nc1ccc(C(=O)N3C[C@H](c4ccc(Cl)cc4)[C@@H](O)C3)cc21 (single isomer, unassigned) [Example 467]
Q = COC(=O)[C@H]1CN(C(=O)c2cc3c4c(c(N)nc3cc2F)COC4)C[C@@H]1c1ccc(C(F)(F)F)cc1 (single isomer, unassigned) [Example 479]
-- ask Two entries are listed, P and Q . Which one carries the higher IC50? Give the label under which the chosen entry appears.
-- reply P
(P: 982 nM, Q: 577 nM)

---

System: HCT116 MTAP null cells
run_description: HCT116 MTAP null cell line proliferation (CellTiter-Glo cell viability, 6 days)
Assay type: cell-based
condition_description: HCT116-MTAP null, 144 h, HCT116 MTAP null cells, 6 days of treatment, CellTiter-Glo cell viability; read-out: HCT-116 MTAP null IC50
quantity: IC50 (nM)

1 = Nc1nc2cnc(C(=O)N3CCOC[C@@H]3c3ccc(C(F)(F)F)s3)cc2c2c1COC2 (single isomer, unassigned)
2 = CC(=O)N1CCN(C(=O)c2cc3c4c(c(N)nc3cn2)COC4)[C@@H](c2ccc(C(F)(F)F)cc2)C1
-- ask Two entries are listed, 1 and 2 . Which one carries the higher IC50? Give the label under which the chosen entry appears.
-- reply 2
(2: 343 nM, 1: 228 nM)
